- Test system: A2780
- experimentDescription: In vitro cytotoxicity, IC50 by flow cytometry (Guava ViaCount)
- Assay type: cell-based, human
- settings: A2780 cells
quantity: log10(IC50) (log10 of the value in nM)
Recorded IC50 (log10, nM)

Consider the worked cases shown below.
• C[n+]1ccn(CCCCCCOC(=O)[C@]23CCC(C)(C)CC2C2=CCC4[C@@]5(C)CC[C@H](O)C(C)(C)C5CC[C@@]4(C)[C@]2(C)CC3)c1 (some centres unmarked) [13a] = 1.26
• C[n+]1ccn(CCCCCCOC(=O)[C@]23CCC(C)(C)CC2C2=CCC4[C@@]5(C)CC[C@H](O)C(C)(C)C5CC[C@@]4(C)[C@]2(C)CC3)c1.O=S(=O)([O-])c1ccccc1 (some centres unmarked) [13e] = 1.38
• C[n+]1ccn(CCCCCCOC(=O)[C@]23CCC(C)(C)CC2C2=CCC4[C@@]5(C)CC[C@H](O)C(C)(C)C5CC[C@@]4(C)[C@]2(C)CC3)c1 (some centres unmarked) [9c] = 2.37
• CC(=O)[O-].C[n+]1ccn(CCCCCCOC(=O)[C@]23CCC(C)(C)CC2C2=CCC4[C@@]5(C)CC[C@H](O)C(C)(C)C5CC[C@@]4(C)[C@]2(C)CC3)c1 (some centres unmarked) [13d] = 1.20

[Q] What value of log10(IC50) has been recorded for this entry: CC1(C)CCC2(C(=O)[O-])CCC3(C)C(=CCC4C5(C)CCC(O)C(C)(C)C5CCC43C)C2C1.CC[n+]1ccn(C)c1 (centres unmarked) [15a]
[A] 2.21
